test.name: PK of KZR-616 and analogs after single SC dose in monkeys
test.settings: cynomolgus monkey, in vivo, single SC dose 3 mg/kg
value.type: AUC(0-inf) (ng·h/mL)

mol: COc1ccc([C@@H](O)[C@H](NC(=O)[C@H](C)NC(=O)CN2CCOCC2)C(=O)N[C@@H](CC2=CCCC2)C(=O)[C@@]2(C)CO2)cc1
value.type: AUC(0-inf)
result.value: 740

###

test.name: PK of KZR-616 and analogs after single SC dose in monkeys
test.settings: cynomolgus monkey, in vivo, single SC dose 3 mg/kg
value.type: Tmax (min)

mol: COc1ccc([C@@H](O)[C@H](NC(=O)[C@H](C)NC(=O)CN2CCOCC2)C(=O)N[C@@H](CC2=CCCC2)C(=O)[C@@]2(C)CO2)cc1
value.type: Tmax
result.value: 20

Hello, the source for this data is paper PMC8583966, in case you need it.
